Organism: Rattus norvegicus
Experiment: Open TG-GATES - Regimen: Daily Repeat
Format: toxicity, organism-based, Sprague-Dawley
Parameters: regimen Daily Repeat, gender Male, age 6 weeks
Settings: in vivo, po, 0 mg/kg, 72 h, tissue Plasma, route gavage, dose level Control, time 3 day
recorded.endpoint: gamma-GTP

# example entries with known answers
[
  {
    "compound": "CC(C)OC(=O)C(C)(C)Oc1ccc(C(=O)c2ccc(Cl)cc2)cc1 [FENOFIBRATE]",
    "recorded.endpoint": "gamma-GTP",
    "result": "1.2 IU/L"
  },
  {
    "compound": "COc1ccc2[nH]c([S+]([O-])Cc3ncc(C)c(OC)c3C)nc2c1 (stereo not drawn) [OMEPRAZOLE]",
    "recorded.endpoint": "gamma-GTP",
    "result": "1.2 IU/L"
  },
  {
    "compound": "CCOc1ccc(NC(=O)CC(C)O)cc1 (stereo not drawn) [BUCETIN]",
    "recorded.endpoint": "gamma-GTP",
    "result": "1.2 IU/L"
  },
  {
    "compound": "COC1=CC(=O)C[C@@H](C)[C@]12Oc1c(Cl)c(OC)cc(OC)c1C2=O [GRISEOFULVIN]",
    "recorded.endpoint": "gamma-GTP",
    "result": "1.2 IU/L"
  },
  {
    "compound": "NC(N)=Nc1nc(CSCCC(N)=NS(N)(=O)=O)cs1 [FAMOTIDINE]",
    "recorded.endpoint": "gamma-GTP",
    "result": "1 IU/L"
  },
  {
    "compound": "CN1C(=O)CN=C(c2ccccc2)c2cc(Cl)ccc21 [DIAZEPAM]",
    "recorded.endpoint": "gamma-GTP",
    "result": "1.6 IU/L"
  }
]

Which gamma-GTP is reported for this compound? CN(C)CCCN1c2ccccc2CCc2ccccc21 [IMIPRAMINE]
1 IU/L

Which gamma-GTP is reported for this compound? NNC(=O)c1ccncc1 [ISONIAZID]
1.6 IU/L

Which gamma-GTP is reported for this compound? CCCNC(=O)NS(=O)(=O)c1ccc(Cl)cc1 [CHLORPROPAMIDE]
1 IU/L

Which gamma-GTP is reported for this compound? CC1=C(/C=C/C(C)=C/C=C/C(C)=C/CO)C(C)(C)CCC1 [RETINOL]
1 IU/L

Which gamma-GTP is reported for this compound? CCOC(=O)CCC(=O)O[C@H]1[C@H](O[C@@H]2[C@@H](C)[C@H](O[C@H]3C[C@@](C)(OC)[C@@H](O)[C@H](C)O3)[C@@H](C)C(=O)O[C@H](CC)[C@@](C)(O)[C@H](O)[C@@H](C)C(=O)[C@H](C)C[C@@]2(C)O)O[C@H](C)C[C@@H]1N(C)C [ERYTHROMYCIN ETHYLSUCCINATE]
1.2 IU/L

Which gamma-GTP is reported for this compound? O=C(CCCN1CCC(O)(c2ccc(Cl)cc2)CC1)c1ccc(F)cc1 [HALOPERIDOL]
1.6 IU/L

Which gamma-GTP is reported for this compound? CN(C)CCN(Cc1cccs1)c1ccccn1
1 IU/L

---

Species on record: Rattus norvegicus
Test: Open TG-GATES - Regimen: Daily Repeat
Type: toxicity, organism-based, Sprague-Dawley
Parameters: regimen Daily Repeat, gender Male, age 6 weeks
Conditions: in vivo, po, 0 mg/kg, 72 h, tissue Kidney, route gavage, dose level Control, time 3 day
Here the recorded KIDNEY_L is given for each entry.
Output spec: scalar in g, unitless text.

# example entries with known answers
[
  {
    "compound": "CCCNC(=O)NS(=O)(=O)c1ccc(Cl)cc1 [CHLORPROPAMIDE]",
    "KIDNEY_L / g": 0.9
  },
  {
    "compound": "NC(N)=Nc1nc(CSCCC(N)=NS(N)(=O)=O)cs1",
    "KIDNEY_L / g": 1
  },
  {
    "compound": "CN(C)CCCN1c2ccccc2CCc2ccccc21",
    "KIDNEY_L / g": 1
  },
  {
    "compound": "COc1ccc2[nH]c([S+]([O-])Cc3ncc(C)c(OC)c3C)nc2c1 (stereo not drawn)",
    "KIDNEY_L / g": 1
  },
  {
    "compound": "CN(C)CCN(Cc1cccs1)c1ccccn1",
    "KIDNEY_L / g": 1
  }
]

Which KIDNEY_L is reported for this compound? CC(C)OC(=O)C(C)(C)Oc1ccc(C(=O)c2ccc(Cl)cc2)cc1 [FENOFIBRATE]
1

Which KIDNEY_L is reported for this compound? CC1=C(/C=C/C(C)=C/C=C/C(C)=C/CO)C(C)(C)CCC1
1.1

Which KIDNEY_L is reported for this compound? NNC(=O)c1ccncc1
0.9

Which KIDNEY_L is reported for this compound? CCOc1ccc(NC(=O)CC(C)O)cc1 (stereo not drawn)
1.1
